tested on: K562; test: Cytotoxicity against human K562 cells after 24 hrs by MTT assay; type: functional, cell-based; conditions: K562, 24 h
assay.readout: IC50 (nM)
Kindly answer with a numeric value in nM, unit omitted.

Please report the recorded IC50 for `NC(=O)c1cc(I)ccc1NC(=O)c1ccccc1-c1ccccc1` .
500
